The values you see were collected from patent US6207393A.

# Lookup of reported pIC50 keyed by entry
biological target: 14-3-3 tau (Homo sapiens); experiment: SPR competitive inhibition of 14-3-3 tau binding to phosphorylated Raf-259 peptide; conditions: isoform tau
Sequence (P27348 whole entry, canonical isoform): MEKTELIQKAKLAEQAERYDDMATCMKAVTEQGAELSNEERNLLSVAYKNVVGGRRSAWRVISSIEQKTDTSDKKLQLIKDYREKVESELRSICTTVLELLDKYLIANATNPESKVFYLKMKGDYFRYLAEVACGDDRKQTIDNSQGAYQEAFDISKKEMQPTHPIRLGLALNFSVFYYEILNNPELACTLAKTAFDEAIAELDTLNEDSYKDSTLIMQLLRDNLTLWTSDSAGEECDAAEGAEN
pIC50: −log10 of the molar value. Where a SMILES comes first, the peptide text is derived from it. [ ]: non-standard residue; d: D form. pS = N[C@@H](COP(=O)(O)O)C(=O)O

compound	pIC50
CC(C)C[C@H](N)C(=O)N[C@@H](CO)C(=O)N[C@@H](CCC(N)=O)C(=O)N[C@@H](CCCNC(=N)N)C(=O)N[C@@H](CCC(N)=O)C(=O)N[C@@H](CCCNC(=N)N)C(=O)N[C@@H](COP(=O)(O)O)C(=O)N[C@H](C(=O)N[C@@H](COP(=O)(O)O)C(=O)N[C@H](C(=O)N1CCC[C@H]1C(=O)N[C@@H](CC(N)=O)C(=O)N[C@H](C(=O)N[C@@H](Cc1c[nH]cn1)C(=O)N[C@@H](C)C(=O)O)C(C)C)[C@@H](C)O)[C@@H](C)O [pS-Raf-257,259] (H-LSQRQR[pS]T[pS]TPNVHA-OH)	< 4.30
CC(C)C[C@H](N)C(=O)N[C@@H](CO)C(=O)N[C@@H](CCC(N)=O)C(=O)N[C@@H](CCCNC(=N)N)C(=O)N[C@@H](CCC(N)=O)C(=O)N[C@@H](CCCNC(=N)N)C(=O)N[C@@H](COP(=O)(O)O)C(=O)N[C@H](C(=O)N[C@@H](CO)C(=O)N[C@H](C(=O)N1CCC[C@H]1C(=O)N[C@@H](CC(N)=O)C(=O)N[C@H](C(=O)N[C@@H](Cc1c[nH]cn1)C(=O)N[C@@H](C)C(=O)O)C(C)C)[C@@H](C)O)[C@@H](C)O [pS-Raf-257] (H-LSQRQR[pS]TSTPNVHA-OH)	< 4.30
CC(C)C[C@H](N)C(=O)N[C@@H](CO)C(=O)N[C@@H](CCC(N)=O)C(=O)N[C@@H](C)C(=O)N[C@@H](CCC(N)=O)C(=O)N[C@@H](C)C(=O)N[C@@H](CO)C(=O)N[C@H](C(=O)N[C@@H](COP(=O)(O)O)C(=O)N[C@H](C(=O)N1CCC[C@H]1C(=O)N[C@@H](CC(N)=O)C(=O)N[C@H](C(=O)N[C@@H](Cc1c[nH]cn1)C(=O)N[C@@H](C)C(=O)O)C(C)C)[C@@H](C)O)[C@@H](C)O [254/256RA] (H-LSQAQAST[pS]TPNVHA-OH)	< 4.30

* * *

biological target: 14-3-3 beta (Homo sapiens, UniProt P31946); assay: SPR competitive inhibition of 14-3-3 beta binding to phosphorylated Raf-259 peptide; details: isoform beta
Sequence (P31946 whole entry, canonical isoform): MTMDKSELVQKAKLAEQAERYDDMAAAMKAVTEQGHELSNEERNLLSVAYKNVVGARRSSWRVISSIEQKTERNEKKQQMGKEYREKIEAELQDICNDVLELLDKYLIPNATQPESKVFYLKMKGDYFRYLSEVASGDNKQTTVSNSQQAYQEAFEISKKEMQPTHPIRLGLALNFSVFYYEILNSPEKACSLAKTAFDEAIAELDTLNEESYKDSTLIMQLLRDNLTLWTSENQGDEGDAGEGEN
pIC50: −log10 of the molar value. Where a SMILES comes first, the peptide text is derived from it. [ ]: non-standard residue; d: D form. pS = N[C@@H](COP(=O)(O)O)C(=O)O
quantity: pIC50

molecule	result
CC(C)C[C@H](N)C(=O)N[C@@H](CO)C(=O)N[C@@H](CCC(N)=O)C(=O)N[C@@H](CCCNC(=N)N)C(=O)N[C@@H](CCC(N)=O)C(=O)N[C@@H](CCCNC(=N)N)C(=O)N[C@@H](COP(=O)(O)O)C(=O)N[C@H](C(=O)N[C@@H](CO)C(=O)N[C@H](C(=O)N1CCC[C@H]1C(=O)N[C@@H](CC(N)=O)C(=O)N[C@H](C(=O)N[C@@H](Cc1c[nH]cn1)C(=O)N[C@@H](C)C(=O)O)C(C)C)[C@@H](C)O)[C@@H](C)O [pS-Raf-257] (H-LSQRQR[pS]TSTPNVHA-OH)	< 4.30
CC(C)C[C@H](N)C(=O)N[C@@H](CO)C(=O)N[C@@H](CCC(N)=O)C(=O)N[C@@H](C)C(=O)N[C@@H](CCC(N)=O)C(=O)N[C@@H](C)C(=O)N[C@@H](CO)C(=O)N[C@H](C(=O)N[C@@H](COP(=O)(O)O)C(=O)N[C@H](C(=O)N1CCC[C@H]1C(=O)N[C@@H](CC(N)=O)C(=O)N[C@H](C(=O)N[C@@H](Cc1c[nH]cn1)C(=O)N[C@@H](C)C(=O)O)C(C)C)[C@@H](C)O)[C@@H](C)O [254/256RA] (H-LSQAQAST[pS]TPNVHA-OH)	< 4.30
CC(C)C[C@H](N)C(=O)N[C@@H](CO)C(=O)N[C@@H](CCC(N)=O)C(=O)N[C@@H](CCCNC(=N)N)C(=O)N[C@@H](CCC(N)=O)C(=O)N[C@@H](CCCNC(=N)N)C(=O)N[C@@H](COP(=O)(O)O)C(=O)N[C@H](C(=O)N[C@@H](COP(=O)(O)O)C(=O)N[C@H](C(=O)N1CCC[C@H]1C(=O)N[C@@H](CC(N)=O)C(=O)N[C@H](C(=O)N[C@@H](Cc1c[nH]cn1)C(=O)N[C@@H](C)C(=O)O)C(C)C)[C@@H](C)O)[C@@H](C)O [pS-Raf-257,259] (H-LSQRQR[pS]T[pS]TPNVHA-OH)	< 4.30
